Cited source: PubChem BioAssay AID1845200

# System: ASPS-1 complex tumor spheroids, viability
# test_method_notes: Anticancer human tumor ASPS-1 cell line growth inhibition;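 note: spheroids exposed to agents for 7 days after 3 days of growth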
# stated_conditions: curve of first compound; second compound 100 µM
observation_type: pIC50
Give bare numbers, as −log10 of the molar value.

Provide pIC50 values for the following items, in order.
1. CNCc1ccc(-c2cc(-c3nc(-c4ccc(S(=O)(=O)C(C)C)cc4)cnc3N)on2)cc1 + Cn1nnc2c(C(N)=O)ncn2c1=O
2. O=C(c1cc(Cc2n[nH]c(=O)c3ccccc23)ccc1F)N1CCN(C(=O)C2CC2)CC1 + Cn1nnc2c(C(N)=O)ncn2c1=O
3. CC(C)n1c(=O)n(C)c2cnc3cc(F)c(-c4ccc(OCCCN5CCCCC5)nc4)cc3c21 + Cn1nnc2c(C(N)=O)ncn2c1=O
4. COc1ccc([C@@H](O)c2cc(-c3ncnc4cc(N5CCOCC5)ccc34)c(F)cc2Cl)nn1 + Cn1nnc2c(C(N)=O)ncn2c1=O

1. 6.74
2. 5.47
3. 6.41
4. 5.76
